Where these numbers come from: patent US8772319B2

- tested_system: human dopamine transporter (hDAT) (Homo sapiens, UniProt Q01959)
- Sequence (Q01959 whole entry): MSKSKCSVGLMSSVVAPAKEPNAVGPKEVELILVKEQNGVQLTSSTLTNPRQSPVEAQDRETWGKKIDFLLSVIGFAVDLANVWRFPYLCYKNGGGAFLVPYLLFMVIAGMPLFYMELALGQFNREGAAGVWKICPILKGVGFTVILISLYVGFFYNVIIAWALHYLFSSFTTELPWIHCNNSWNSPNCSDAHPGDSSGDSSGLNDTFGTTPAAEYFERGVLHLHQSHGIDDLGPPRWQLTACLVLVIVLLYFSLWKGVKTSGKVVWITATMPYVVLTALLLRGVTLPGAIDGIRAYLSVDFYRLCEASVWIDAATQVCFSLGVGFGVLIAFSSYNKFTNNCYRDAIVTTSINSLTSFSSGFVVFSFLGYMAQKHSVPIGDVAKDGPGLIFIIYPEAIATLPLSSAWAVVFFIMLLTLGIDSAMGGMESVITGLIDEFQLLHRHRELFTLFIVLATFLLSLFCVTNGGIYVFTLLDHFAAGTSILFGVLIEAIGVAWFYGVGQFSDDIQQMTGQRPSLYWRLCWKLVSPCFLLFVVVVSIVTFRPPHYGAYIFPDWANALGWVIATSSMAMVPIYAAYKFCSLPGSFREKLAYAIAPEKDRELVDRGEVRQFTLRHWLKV
- assay_summary: biochemical
- Format: binding
- measurement_parameters: Table 4; [125I]RTI-55; read-out: DAT binding affinity Ki
measured_property: pKi
pKi is a log-scale quantity: -log10 of the concentration expressed in molar.

O=C(CCN1C(=O)C=CC1=O)NCC1(c2ccccc2)CCN(CCCCOC(c2ccc(F)cc2)c2ccc(F)cc2)CC1	6.08
O=C(CCl)NCC1(c2ccccc2)CCN(CCCCOC(c2ccc(F)cc2)c2ccc(F)cc2)CC1	6.50
NCC1(c2ccccc2)CCN(CCCCOC(c2ccc(F)cc2)c2ccc(F)cc2)CC1	6.85

Now for the molecule whose pKi we want.
[ask] Give reported pKi for CC(=O)NCC1(c2ccccc2)CCN(CCCCOC(c2ccc(F)cc2)c2ccc(F)cc2)CC1 (human dopamine transporter (hDAT) (Homo sapiens, UniProt Q01959))
[reply] 6.76

* * *

// reported pIC50 per item
- tested_system: human dopamine transporter (hDAT) (Homo sapiens, UniProt Q01959)
- assay_summary: cell-based
- measurement_parameters: Reuptake Inhibition [3H]DA IC50, Table 1-1
pIC50 is a log-scale quantity: -log10 of the concentration expressed in molar.

Illustrative cases are given below, each with its answer.
Fc1ccc(C(OCCCCN2CCN(C(=S)Nc3cccnc3)CC2)c2ccc(F)cc2)cc1	7.01
O=C(Nc1ccc(-c2ccccc2)cc1)N1CCN(CCCCOC(c2ccc(F)cc2)c2ccc(F)cc2)CC1	6.38
O=C(NCc1ccc(F)cc1)N1CCN(CCCCOC(c2ccc(F)cc2)c2ccc(F)cc2)CC1	7.28

Now for the compound whose pIC50 we want.
[ask] Give reported pIC50 for O=C(Nc1ccc(F)cc1)N1CCN(CCCCOC(c2ccc(F)cc2)c2ccc(F)cc2)CC1 (human dopamine transporter (hDAT) (Homo sapiens, UniProt Q01959))
[reply] 8.05

* * *

// reported pKi per item
- tested_system: D3 receptor (Homo sapiens, UniProt P35462)
- Construct: expressed in transfected cells; host or cells: CHOp- cells (CHOp-D3)
- Sequence (P35462 whole entry): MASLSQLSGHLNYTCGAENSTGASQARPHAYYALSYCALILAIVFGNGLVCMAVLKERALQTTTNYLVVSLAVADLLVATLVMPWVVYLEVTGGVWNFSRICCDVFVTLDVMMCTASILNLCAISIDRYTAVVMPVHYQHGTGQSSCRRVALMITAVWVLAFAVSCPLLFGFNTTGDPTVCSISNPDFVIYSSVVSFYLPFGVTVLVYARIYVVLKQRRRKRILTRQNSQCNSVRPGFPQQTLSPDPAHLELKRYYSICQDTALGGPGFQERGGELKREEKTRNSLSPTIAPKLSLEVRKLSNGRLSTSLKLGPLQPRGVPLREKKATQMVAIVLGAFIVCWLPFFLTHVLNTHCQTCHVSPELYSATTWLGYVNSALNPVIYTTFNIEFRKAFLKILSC
- assay_summary: D3 receptor binding, CHOp- cells, [3H]YM-09151-2
- measurement_parameters: Table 7; CHOp- cells, [3H]YM-09151-2; read-out: D3 Affinity Ki
pKi is a log-scale quantity: -log10 of the concentration expressed in molar.

Fc1ccc(C(OCCCCN2CCNC(c3ccccc3)C2)c2ccc(F)cc2)cc1 (stereo not drawn) [Compound 28]	6.17
Fc1ccc(C(OCCCCN2CCN(c3ccccc3)CC2)c2ccc(F)cc2)cc1 [Compound 29]	6.62

Now for the compound whose pKi we want.
[ask] Please list pKi recorded for the compound O=C(c1ccccc1)N1CCN(CCCCOC(c2ccc(F)cc2)c2ccc(F)cc2)CC1 [Compound 40]
[reply] 6.92

* * *

- tested_system: D2 receptor (Homo sapiens)
- Construct: expressed in transfected cells; host or cells: CHOp- cells (CHOp-D2)
- Sequence (P14416 whole entry): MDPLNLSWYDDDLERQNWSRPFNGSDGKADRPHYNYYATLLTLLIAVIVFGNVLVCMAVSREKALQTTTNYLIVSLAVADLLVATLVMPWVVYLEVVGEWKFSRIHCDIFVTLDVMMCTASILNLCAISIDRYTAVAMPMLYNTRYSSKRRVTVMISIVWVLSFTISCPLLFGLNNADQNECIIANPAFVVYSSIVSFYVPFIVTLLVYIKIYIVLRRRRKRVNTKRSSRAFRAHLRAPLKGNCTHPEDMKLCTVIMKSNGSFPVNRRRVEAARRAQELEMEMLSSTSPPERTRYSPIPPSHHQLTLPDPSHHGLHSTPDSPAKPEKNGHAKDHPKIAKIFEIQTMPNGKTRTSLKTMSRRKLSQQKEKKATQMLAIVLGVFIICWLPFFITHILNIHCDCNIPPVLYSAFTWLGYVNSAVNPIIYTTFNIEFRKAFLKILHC
- assay_summary: D2 receptor binding, CHOp- cells, [3H]YM-09151-2
measured_property: Ki (nM)
All answers are understood in nM, so give the number only.

COc1ccccc1N1CCN(CCCCOC(c2ccc(F)cc2)c2ccc(F)cc2)CC1 [Compound 35]	134

[ask] Please list Ki recorded for the compound Fc1ccc(C(OCCCCN2CCN(c3ccccn3)CC2)c2ccc(F)cc2)cc1 [Compound 39]
[reply] 282

* * *

- tested_system: human dopamine transporter (hDAT) (Homo sapiens)
- assay_summary: cell-based
- measurement_parameters: Table 6
// reported Discrimination Ratios (DR) [3H]DA reuptake/DAT binding per item

Illustrative cases are given below, each with its answer.
Fc1ccc(C(OCCCCN2CCN(Cc3ccc4c(c3)OCO4)CC2)c2ccc(F)cc2)cc1	30.3
Fc1ccc(C(OCCCCN2CCN(c3ccc(Cl)cc3)CC2)c2ccc(F)cc2)cc1	23.4
O=[N+]([O-])c1ccc(N2CCN(CCCCOC(c3ccc(F)cc3)c3ccc(F)cc3)CC2)cc1	39.2

Now for the compound whose Discrimination Ratios (DR) [3H]DA reuptake/DAT binding we want.
[ask] Give reported Discrimination Ratios (DR) [3H]DA reuptake/DAT binding for Fc1ccc(C(OCCCCN2CCN(c3ccccc3Cl)CC2)c2ccc(F)cc2)cc1 (human dopamine transporter (hDAT) (Homo sapiens))
[reply] 4.9

* * *

- tested_system: human serotonin transporter (hSERT) (Homo sapiens, UniProt P31645)
- Sequence (P31645 whole entry): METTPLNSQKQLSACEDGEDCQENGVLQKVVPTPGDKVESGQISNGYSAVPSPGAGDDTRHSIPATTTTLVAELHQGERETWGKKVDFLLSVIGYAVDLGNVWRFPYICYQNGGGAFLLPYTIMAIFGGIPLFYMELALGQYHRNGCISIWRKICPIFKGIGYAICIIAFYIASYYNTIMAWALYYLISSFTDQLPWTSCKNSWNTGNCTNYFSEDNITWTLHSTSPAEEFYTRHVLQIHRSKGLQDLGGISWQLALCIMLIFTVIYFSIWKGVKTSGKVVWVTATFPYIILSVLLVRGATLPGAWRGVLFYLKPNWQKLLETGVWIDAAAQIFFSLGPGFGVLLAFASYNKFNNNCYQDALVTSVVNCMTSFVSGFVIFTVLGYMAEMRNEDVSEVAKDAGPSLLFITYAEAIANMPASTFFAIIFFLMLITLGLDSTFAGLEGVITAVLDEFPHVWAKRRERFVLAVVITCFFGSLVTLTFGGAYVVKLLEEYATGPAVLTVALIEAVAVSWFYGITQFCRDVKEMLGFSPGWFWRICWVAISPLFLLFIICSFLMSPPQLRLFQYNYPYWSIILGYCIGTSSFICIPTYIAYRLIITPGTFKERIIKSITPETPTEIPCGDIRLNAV
- assay_summary: cell-based
- measurement_parameters: Table 1-1; read-out: Reuptake Inhibition [3H]5-HT IC50
measured_property: pIC50
pIC50 is a log-scale quantity: -log10 of the concentration expressed in molar.

[ask] Please list pIC50 recorded for the compound O=C(NS(=O)(=O)c1ccc(F)cc1)N1CCN(CCCCOC(c2ccc(F)cc2)c2ccc(F)cc2)CC1
[reply] 5.79

* * *

- tested_system: human serotonin transporter (hSERT) (Homo sapiens, UniProt P31645)
- assay_summary: cell-based
- measurement_parameters: Reuptake Inhibition [3H]5-HT IC50, Table 6; bound given in μM
measured_property: IC50

[ask] Please list IC50 recorded for the molecule Fc1ccc(C(OCCCCN2CCN(c3ccccn3)CC2)c2ccc(F)cc2)cc1 [Compound 39]
[reply] > 10 µM

* * *

- tested_system: human dopamine transporter (hDAT) (Homo sapiens, UniProt Q01959)
- assay_summary: biochemical
- Type: binding
- measurement_parameters: Table 5
measured_property: Binding Ratios SERT/DAT
Returns: the value as a bare number; no unit string appended.

O=C1CN(CCCCOC(c2ccc(F)cc2)c2ccc(F)cc2)CCN1	0.4

Now for the molecule whose Binding Ratios SERT/DAT we want.
[ask] Please list Binding Ratios SERT/DAT recorded for the molecule Fc1ccc(C(OCCCCN2CCN(c3ccccc3Cl)CC2)c2ccc(F)cc2)cc1
[reply] 1.3

* * *

- tested_system: human serotonin transporter (hSERT) (Homo sapiens, UniProt P31645)
- assay_summary: biochemical
- measurement_parameters: Table 5; [125I]RTI-55; oxalate salts; read-out: SERT binding affinity Ki
measured_property: log10(Ki) (log10 of the value in nM)
Please interpret these as log10 of Ki where Ki is in nM.

Illustrative cases are given below, each with its answer.
O=C1CN(CCCCOC(c2ccc(F)cc2)c2ccc(F)cc2)CCN1 [Compound 27]	3.26
O=[N+]([O-])c1ccc(S(=O)(=O)N2CCN(CCCCOC(c3ccc(F)cc3)c3ccc(F)cc3)CC2)cc1 [Compound 42]	3.69
Fc1ccc(C(OCCCCN2CCN(Cc3ccc4c(c3)OCO4)CC2)c2ccc(F)cc2)cc1 [Compound 41]	1.77
COc1ccccc1N1CCN(CCCCOC(c2ccc(F)cc2)c2ccc(F)cc2)CC1 [Compound 35]	2.41

[ask] Please list log10(Ki) recorded for the compound Fc1ccc(C(OCCCCN2CCN(c3ccccc3Cl)CC2)c2ccc(F)cc2)cc1 [Compound 32]
[reply] 1.94

[ask] Please list log10(Ki) recorded for the compound Fc1ccc(C(OCCCCN2CCNCC2)c2ccc(F)cc2)cc1 [Compound 3]
[reply] 3.28

[ask] Please list log10(Ki) recorded for the compound Fc1ccc(C(OCCCCN2CCNC(c3ccccc3)C2)c2ccc(F)cc2)cc1 (stereo not shown) [Compound 28]
[reply] 1.87

[ask] Please list log10(Ki) recorded for the compound O=[N+]([O-])c1ccc(N2CCN(CCCCOC(c3ccc(F)cc3)c3ccc(F)cc3)CC2)cc1 [Compound 38]
[reply] 2.19

[ask] Please list log10(Ki) recorded for the compound O=C(c1ccccc1)N1CCN(CCCCOC(c2ccc(F)cc2)c2ccc(F)cc2)CC1 [Compound 40]
[reply] 1.94

[ask] Please list log10(Ki) recorded for the compound CC(=O)c1ccc(N2CCN(CCCCOC(c3ccc(F)cc3)c3ccc(F)cc3)CC2)cc1 [Compound 37]
[reply] 1.62

* * *

// reported pIC50 per item
- tested_system: human dopamine transporter (hDAT) (Homo sapiens, UniProt Q01959)
- assay_summary: cell-based
- measurement_parameters: Reuptake Inhibition [3H]DA IC50, Table 6
pIC50 is a log-scale quantity: -log10 of the concentration expressed in molar.

Illustrative cases are given below, each with its answer.
COc1ccccc1N1CCN(CCCCOC(c2ccc(F)cc2)c2ccc(F)cc2)CC1	6.52
Fc1ccc(C(OCCCCN2CCN(c3ccccn3)CC2)c2ccc(F)cc2)cc1	6.41
O=C(c1ccccc1)N1CCN(CCCCOC(c2ccc(F)cc2)c2ccc(F)cc2)CC1	6.19

Now for the compound whose pIC50 we want.
[ask] Give reported pIC50 for O=[N+]([O-])c1ccc(N2CCN(CCCCOC(c3ccc(F)cc3)c3ccc(F)cc3)CC2)cc1 (human dopamine transporter (hDAT) (Homo sapiens, UniProt Q01959))
[reply] 5.63

* * *

// reported Ki per item
- tested_system: 5-HT2A receptor (Rattus norvegicus, UniProt P14842)
- Construct: expressed in transfected cells; host or cells: NIH-3T3-GF6 cells
- Sequence (P14842 whole entry): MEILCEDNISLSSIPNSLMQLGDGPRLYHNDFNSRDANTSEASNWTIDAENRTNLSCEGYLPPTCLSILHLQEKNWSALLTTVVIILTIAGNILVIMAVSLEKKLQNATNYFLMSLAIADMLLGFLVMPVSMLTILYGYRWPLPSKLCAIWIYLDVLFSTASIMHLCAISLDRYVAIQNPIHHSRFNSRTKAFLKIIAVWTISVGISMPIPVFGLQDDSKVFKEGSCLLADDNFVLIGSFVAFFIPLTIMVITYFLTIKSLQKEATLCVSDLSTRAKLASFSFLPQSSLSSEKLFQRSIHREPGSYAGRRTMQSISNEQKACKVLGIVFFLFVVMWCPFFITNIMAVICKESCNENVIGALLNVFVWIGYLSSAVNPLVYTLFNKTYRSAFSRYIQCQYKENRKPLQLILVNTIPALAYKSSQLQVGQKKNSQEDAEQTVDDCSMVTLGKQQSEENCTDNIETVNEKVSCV
- assay_summary: 5-HT2A receptor binding, NIH-3T3-GF6 cells, [3H]ketanserin
- measurement_parameters: Table 7; rat receptors, NIH-3T3-GF6 cells, [3H]ketanserin; read-out: 5-HT2A Affinity Ki

Illustrative cases are given below, each with its answer.
Fc1ccc(C(OCCCCN2CCN(c3ccccc3)CC2)c2ccc(F)cc2)cc1	0.404 µM
Fc1ccc(C(OCCCCN2CCNC(c3ccccc3)C2)c2ccc(F)cc2)cc1 (stereo not drawn)	1.49 µM

[ask] Please list Ki recorded for the molecule O=C(c1ccccc1)N1CCN(CCCCOC(c2ccc(F)cc2)c2ccc(F)cc2)CC1
[reply] 4.8 µM
